assay: Cell Viability - LYMP2-009 (AID 968); conditions: LYMP2-009 lymphoblastoid cell viability; series mostly up to 92.2 µM;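 also: cells exposed to compound for 24 h at 37 °C; nearly all actives have a fitted effect of over 55% in size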
Results filed as inconclusive are left out. Activity calls are given as the source filed them. Calls follow the shape of the dose curve; as a rule, active = well fitted cell-killing curve with a large enough effect; inconclusive = small, poorly fitted or top-dose-only effect; inactive = flat fitted curve, though single readings scatter.
Hello, when you answer, please use one of the following outcomes: TRUE for active, FALSE for inactive

Example entries and their recorded answers appear below.
| Compound | Label |
| --- | --- |
| Cc1cc2nc(N)sc2cc1C | FALSE |
| Oc1cc2c(cc1O)[C@H]1c3ccc(O)c(O)c3OC[C@@]1(O)C2 | TRUE |
| Oc1ccc2c(c1)OCO2 | FALSE |
| C=CC(C)(O)CCCC(C)CCCC(C)CCCC(C)C (stereo not given) | FALSE |
| O=[N+]([O-])c1ccccc1Nc1ccccc1 | FALSE |
| C[Si](C)(C)Cl | FALSE |
| CC(=O)OCc1ccc2c(c1)OCO2 | FALSE |
| CC(C)S | FALSE |

GET /call?item= `COc1ccc(C)cc1N` returns the recorded outcome of this test.
FALSE

GET /call?item= `C=C1CC[C@H](O)C/C1=C/C=C1\CCC[C@]2(C)[C@@H]([C@H](C)CCCC(C)C)CC[C@@H]12` returns the recorded outcome of this test.
TRUE

GET /call?item= CCOC(=O)C1OC1c1ccccc1 (stereo not given) returns the recorded outcome of this test.
FALSE

GET /call?item= `c1ccc2c(c1)ccc1ccccc12` returns the recorded outcome of this test.
FALSE

----------
test system: CP335; assay: qHTS profiling for inhibitors of Plasmodium falciparum proliferation (AID 504749); also: nearly all actives have a fitted effect of over 60% in size; conditions: P. falciparum in erythrocytes, SYBR Green DNA, 72 h; series mostly up to 28.7 µM
Records with an inconclusive call do not appear. Calls of active or inactive are those of the source. Calls follow the shape of the dose curve; as a rule, active = well fitted inhibition curve with a large enough effect; inconclusive = small, poorly fitted or top-dose-only effect; inactive = flat fitted curve, though single readings scatter.
Hello, when you answer, please use one of the following outcomes: TRUE for active, FALSE for inactive

Example entries and their recorded answers appear below.
| Compound Structure String | Label |
| --- | --- |
| C[C@]12CC[C@H]3c4ccc(O)cc4CC[C@@H]3[C@H]1CC[C@@H]2OP(=O)(O)O | FALSE |
| CO/N=C(\C(=O)N[C@@H]1C(=O)N2C(C(=O)[O-])=C(C[N+]3(C)CCCC3)CS[C@@H]12)c1csc(N)n1 | FALSE |
| O=C(O)[C@@H](O)[C@@H](O)[C@H](O)C(=O)CO | FALSE |

Continue with the next compound.
GET /call?item= `C[C@@H]1C[C@H]2[C@H]3C[C@@H](F)C4=CC(=O)C=C[C@]4(C)[C@@]3(Cl)[C@@H](O)C[C@@]2(C)[C@@H]1C(=O)COC(=O)C(C)(C)C` returns the recorded outcome of this test.
TRUE

----------
test: AP1 Signaling Pathway (AID 357); conditions: ME-180 AP-1-bla reporter, EGF-induced, beta-lactamase ratio, 5 h; at 7.69 µM (top of the series) unless noted;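 also: ME-180 reporter cells stimulated with EGF at its EC50 level; % is scaled to controls: 0 for no effect and ±100 for the full control effect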
Records with an inconclusive call do not appear. Active and inactive are the calls of the source. Calls come from the whole dose curve; as a rule, active = well fitted curve in either direction with a large enough effect (not every such curve was filed as active); inconclusive = small, poorly fitted or top-dose-only effect, or another doubt; inactive = flat fitted curve, though single readings scatter.
Hello, when you answer, please use one of the following outcomes: 1.0 = active, 0.0 = inactive

Example entries and their recorded answers appear below.
| Compound Structure String | Label |
| --- | --- |
| CN(N=O)c1ccc(/C=C\c2ccnc3ccccc23)cc1 | 0.0 |
| Nc1nc(-c2ccccc2)c(CC(=O)O)s1 | 0.0 |
| Cc1cc(OCC(=O)O)c(Cl)cc1Cl | 0.0 |
| O=C(O)CN1C(=O)O[C@@H](c2ccccc2)C1=O | 0.0 |
| CC[C@@H]1CN2CCc3cc(OC)c(OC)cc3[C@H]2C[C@@H]1C[C@@H]1NCCc2cc(OC)c(OC)cc21 | 1.0 |

Continue with the next compound.
GET /call?item= `NC(=O)c1csc(-c2ccc(CO)o2)n1` returns the recorded outcome of this test.
0.0

----------
assay: Stat Signaling Pathway (AID 446); settings: ME-180 (cervical carcinoma) SIE beta-lactamase reporter, IL-6 stimulated, 5 h; at 7.69 µM (top of the series) unless noted;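 also: ME-180 cervical cancer cells given 40 pM IL-6 alongside compound; SIE-controlled beta-lactamase reporter measured as 460/530 nm FRET emission ratio; % is scaled to controls: 0 for no effect and ±100 for the full control effect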
Records with an inconclusive call do not appear. The source made the active and inactive calls. Calls come from the whole dose curve; as a rule, active = well fitted curve in either direction with a large enough effect (not every such curve was filed as active); inconclusive = small, poorly fitted or top-dose-only effect, or another doubt; inactive = flat fitted curve, though single readings scatter.
Parameter: activity, negative = inhibition

Below: 4 compounds and their reported activity, negative = inhibition.
| Compound | Recorded Value |
| --- | --- |
| O=C(O)NCC1CCCCC1 (tested in a mixture with another compound) | -1.59% (inactive) |
| c1ccc(C(CCN2CC3CCC(CC3)C2)c2ccccc2)cc1 | 0.0517% (inactive) |
| O=C(Nc1cccc2ccccc12)c1ccccc1 | 3.33% (inactive) |
| O=C(O)c1cc(N=Cc2ccccc2O)cc(C(=O)O)c1 | -4.46% (inactive) |

Returns the measured activity, negative = inhibition for the input compound. Input: `CSc1nc2cc(S(=O)(=O)N3CCCCC3)ccc2s1`
-6.1% (inactive)

----------
target: Glucocorticoid receptor (Homo sapiens) (UniProt P04150); assay: GR-GFP Redistribution (AID 450); details: U2OS GR-GFP nuclear translocation, laser cytometry, 2 h; also: potency is read from the fitted curve at half-maximal effect
Sequence (P04150 whole entry, looked up): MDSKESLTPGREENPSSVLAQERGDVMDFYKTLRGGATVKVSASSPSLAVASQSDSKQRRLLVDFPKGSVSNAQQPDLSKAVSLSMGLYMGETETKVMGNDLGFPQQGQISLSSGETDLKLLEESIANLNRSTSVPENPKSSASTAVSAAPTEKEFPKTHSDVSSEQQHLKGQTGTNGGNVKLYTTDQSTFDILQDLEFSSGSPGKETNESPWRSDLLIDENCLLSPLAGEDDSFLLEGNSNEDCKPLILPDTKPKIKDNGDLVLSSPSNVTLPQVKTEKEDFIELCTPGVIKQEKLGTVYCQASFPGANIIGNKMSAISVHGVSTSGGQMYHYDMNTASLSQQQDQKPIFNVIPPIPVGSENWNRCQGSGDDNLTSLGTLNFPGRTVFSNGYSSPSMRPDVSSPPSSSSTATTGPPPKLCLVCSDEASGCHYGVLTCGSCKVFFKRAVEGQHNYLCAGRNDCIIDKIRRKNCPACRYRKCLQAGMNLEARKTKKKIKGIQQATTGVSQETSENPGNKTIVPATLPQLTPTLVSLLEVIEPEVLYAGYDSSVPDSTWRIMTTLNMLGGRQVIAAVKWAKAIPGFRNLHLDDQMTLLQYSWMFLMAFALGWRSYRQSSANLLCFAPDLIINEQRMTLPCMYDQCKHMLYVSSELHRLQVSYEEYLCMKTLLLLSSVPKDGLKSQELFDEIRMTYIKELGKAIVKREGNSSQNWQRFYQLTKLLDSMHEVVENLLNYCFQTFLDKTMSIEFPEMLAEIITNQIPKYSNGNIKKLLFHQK
Calls of active or inactive are those of the source.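 The calls were made as follows: active = compounds whose dose series gives a full or clear partial fitted curve of increased nuclear translocation; inconclusive = weak partial curve or effect only at the top dose; inactive = no dose-dependent translocation response.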
The entries below are paired with their reported Potency.

| Compound Structure String | Potency |
| --- | --- |
| COC(=O)CC[C@@H](C)[C@@H]1CC[C@@H]2[C@@H]3CC[C@H]4C[C@@H](O)CC[C@@]4(C)[C@@H]3CC[C@]21C | > 46 µM (inactive) |
| O=c1c(-c2ccc(F)cc2)nc2cnc(Oc3ccccc3)nc2n1C[C@H]1CCCO1 | > 9.22 µM (inactive) |

Returns the measured Potency for the input compound. Input: `C/C(=N/NS(=O)(=O)c1ccc(C)cc1)P(=O)(O)O`
> 46 µM (inactive)

Returns the measured Potency for the input compound. Input: `O=C1c2ccccc2C(=O)c2c1ccc(C(=O)O)c2-c1ccc2ccccc2c1`
> 46 µM (inactive)

Returns the measured Potency for the input compound. Input: `C[N+]1([C@H](CO)Cc2c[nH]c3ccccc23)Cc2ccccc2C1`
> 46 µM (inactive)

Returns the measured Potency for the input compound. Input: `N[C@@H](CSc1nc2ccccn2c1[N+](=O)[O-])C(=O)O`
> 46 µM (inactive)

Returns the measured Potency for the input compound. Input: `Cc1[nH]c(N)nc(=S)c1CCC(=O)O`
> 46 µM (inactive)

Returns the measured Potency for the input compound. Input: `Nc1nc(-c2cccc([N+](=O)[O-])c2)cc(-c2cc(-c3cccc([N+](=O)[O-])c3)nc(N)n2)n1`
> 46 µM (inactive)

Returns the measured Potency for the input compound. Input: `O=C(O)c1cscc1Cc1cccs1`
> 46 µM (inactive)

Returns the measured Potency for the input compound. Input: `COCCn1c(=O)c(-c2ccccc2)nc2cnc(Oc3ccccc3)nc21`
> 9.22 µM (inactive)

Returns the measured Potency for the input compound. Input: `CCCC1c2c(ccc3ccccc23)Oc2ccc3ccccc3c21`
> 46 µM (inactive)

Returns the measured Potency for the input compound. Input: `O=CN[C@@H](Cc1cnc[nH]1)C(=O)O`
> 46 µM (inactive)

Returns the measured Potency for the input compound. Input: `Cc1ccccc1CNc1ncnc2c1ncn2[C@@H]1O[C@@H](CO)[C@H](O)[C@@H]1O`
> 46 µM (inactive)

Returns the measured Potency for the input compound. Input: `OCCCNCc1ccccn1`
> 46 µM (inactive)

----------
biological target: Glucocorticoid receptor (Homo sapiens) (UniProt P04150); assay: GR-GFP Redistribution (AID 450); details: U2OS GR-GFP nuclear translocation, laser cytometry, 2 h; also: potency is read from the fitted curve at half-maximal effect
Active and inactive are the calls of the source.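 How the source made its calls: active means compounds whose dose series gives a full or clear partial fitted curve of increased nuclear translocation; inconclusive means weak partial curve or effect only at the top dose; inactive means no dose-dependent translocation response.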
Hello, when you answer, please use one of the following outcomes: 1 (active), -1 (inactive)

Example entries and their recorded answers appear below.
| Compound Structure String | Label |
| --- | --- |
| O=C(NCc1cccnc1)[C@@H]1[C@@H](C(=O)O)[C@H]2CC[C@@H]1O2 | -1 |
| O=C(O)c1cccc(N=Nc2c(S(=O)(=O)O)ccc3c2C(=O)c2ccccc2C3=O)c1O | -1 |
| O=C(O)CC[C@@H](NC(=O)c1ccccc1C(=O)O)C(=O)O | -1 |
| Cn1c(=O)c2[nH]c(CCC(=O)O)nc2n(C)c1=O | -1 |

GET /call?item= `CCn1c(CCCc2nc3c([nH]2)c(=O)n(C)c(=O)n3C)nc2c1c(=O)n(C)c(=O)n2C` returns the recorded outcome of this test.
-1

GET /call?item= `O=[N+]([O-])/C=C\c1cc2ccccc2[nH]1` returns the recorded outcome of this test.
-1

GET /call?item= `Nc1nc(C(=O)O)c(N=Nc2ccccc2)c(=O)[nH]1` returns the recorded outcome of this test.
-1

----------
test: Cell Viability - LYMP2-008 (AID 980); settings: LYMP2-008 lymphoblastoid cell viability, qHTS; series mostly up to 92.2 µM; also: nearly all actives have a fitted effect of over 60% in size
Records with an inconclusive call do not appear. The source made the active and inactive calls. Calls follow the shape of the dose curve; as a rule, active = well fitted cell-killing curve with a large enough effect; inconclusive = small, poorly fitted or top-dose-only effect; inactive = flat fitted curve, though single readings scatter.
Hello, when you answer, please use one of the following outcomes: Yes (active), No (inactive)

| Molecule | Label |
| --- | --- |
| CCNC(=S)NCC | No |
| NC(=O)c1ccc([N+](=O)[O-])cc1 | No |
| CCCCCCCCOc1ccc(C(=O)O)cc1 | No |

GET /call?item= `Cc1ccc(C(=O)O)cc1[N+](=O)[O-]` returns the recorded outcome of this test.
No

GET /call?item= `CC(=O)OCc1ccc2c(c1)OCO2` returns the recorded outcome of this test.
No

GET /call?item= `C=Cc1cccc(C)c1` returns the recorded outcome of this test.
No

GET /call?item= CCOC(=O)C1OC1c1ccccc1 (stereo not given) returns the recorded outcome of this test.
No

GET /call?item= `C=CC(=O)OCCCCCCOC(=O)C=C` returns the recorded outcome of this test.
Yes
